- System Name: CYP1A2 (Homo sapiens, UniProt P05177)
- Sequence (P05177 whole entry, species assumed): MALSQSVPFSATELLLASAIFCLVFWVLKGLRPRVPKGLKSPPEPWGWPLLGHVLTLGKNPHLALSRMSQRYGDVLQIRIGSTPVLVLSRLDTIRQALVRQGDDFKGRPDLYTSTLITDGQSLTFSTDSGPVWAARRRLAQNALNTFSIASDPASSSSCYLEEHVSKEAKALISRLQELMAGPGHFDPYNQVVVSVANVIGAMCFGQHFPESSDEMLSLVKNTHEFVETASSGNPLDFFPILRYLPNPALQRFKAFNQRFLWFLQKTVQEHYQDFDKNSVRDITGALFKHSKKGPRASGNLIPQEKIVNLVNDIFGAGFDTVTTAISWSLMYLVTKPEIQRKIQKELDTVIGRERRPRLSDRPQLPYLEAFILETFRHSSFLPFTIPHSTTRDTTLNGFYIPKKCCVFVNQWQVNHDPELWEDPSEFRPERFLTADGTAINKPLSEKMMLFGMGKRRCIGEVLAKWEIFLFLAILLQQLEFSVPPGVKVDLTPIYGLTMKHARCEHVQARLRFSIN
- Assay Overview: CYP interactions, CYP1A2
pIC50: −log10 of the molar value.

[
  {
    "Structure String": "CNC(=O)c1ccc(N2CCN(Cc3ccc4nc(C)c(=O)[nH]c4c3F)CC2)c(F)n1",
    "pIC50": "< 5.30"
  }
]

---

- System Name: CYP2C9 (Homo sapiens)
- Sequence (P11712 whole entry, species assumed): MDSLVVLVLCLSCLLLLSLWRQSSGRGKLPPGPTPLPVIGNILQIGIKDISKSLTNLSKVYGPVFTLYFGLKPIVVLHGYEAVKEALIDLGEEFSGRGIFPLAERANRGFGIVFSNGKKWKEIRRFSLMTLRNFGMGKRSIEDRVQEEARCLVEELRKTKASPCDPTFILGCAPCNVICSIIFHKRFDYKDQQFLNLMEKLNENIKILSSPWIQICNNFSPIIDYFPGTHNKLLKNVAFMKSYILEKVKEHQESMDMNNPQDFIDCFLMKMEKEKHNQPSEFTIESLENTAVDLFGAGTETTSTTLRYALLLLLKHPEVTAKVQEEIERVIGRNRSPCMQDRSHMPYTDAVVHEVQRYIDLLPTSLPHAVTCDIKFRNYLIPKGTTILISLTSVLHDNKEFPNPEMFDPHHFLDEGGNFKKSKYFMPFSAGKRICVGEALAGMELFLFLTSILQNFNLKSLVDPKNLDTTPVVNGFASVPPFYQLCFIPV
- Assay Overview: CYP interactions, CYP2C9
pIC50: −log10 of the molar value.

[
  {
    "Structure String": "CNC(=O)c1ccc(N2CCN(Cc3ccc4nc(C)c(=O)[nH]c4c3F)CC2)c(F)n1",
    "pIC50": "< 5.30"
  }
]
